# System: acute myeloid leukemia cell line MOLM13
# Experiment description: Growth of cancer cells, Cell Titer-Glo GI50, MOLM13
# Assay type: cell-based
# Run parameters: Homo sapiens, MOLM-13; incubated for 72 hours, Cell Titer-Glo; Table 1; read-out: GI50 MOLM 13
For each entry below, report its GI50 value.
Supply the numeric figure in nM, leaving out any unit text.

Q: Query (compound): `CN1CCN(c2ccc(Nc3nccc(-c4ccc5c(c4)C(C)(C)CNC5=O)n3)cc2)CC1` ; field requested: GI50
Result: 3

Q: Which GI50 reading was recorded for the compound `COc1ccc(Nc2nccc(-c3ccc4c(c3)C(C)(C)CNC4=O)n2)cc1CS(C)(=O)=O` ?
Result: 30

Q: Entry under review: `CC1(C)CNC(=O)c2ccc(-c3ccnc(Nc4ccc(F)c(NS(C)(=O)=O)c4)n3)cc21` . Reported GI50?
Result: 11

Q: What measured GI50 goes with CC1(C)CNC(=O)c2ccc(-c3ccnc(Nc4cccc(S(C)(=N)=O)c4)n3)cc21 (stereo not drawn) ?
Result: 5

Q: Recorded GI50 of `CN1CCC(NC(=O)c2cccc(Nc3nccc(-c4ccc5c(c4)C(C)(C)CNC5=O)n3)c2)CC1` , please.
Result: 10

====

Please provide measured GI50 for the entries that follow.
# Test system: MOLM13 drug resistant strain MOLM13 BR1
# Experiment description: Growth of drug resistant strain MOLM13 BR1, Cell Titer-Glo GI50
# Format: cell-based
# Run parameters: Homo sapiens, MOLM-13, BAY1251152-resistant MOLM13 strain, 72 hours
Use nM as the unit, but write only the number.

Q: Form field: GI50 recorded for `CN1CCN(c2cccc(Nc3nccc(-c4ccc5c(c4)C(C)(C)CNC5=O)n3)c2)CC1` with MOLM13 drug resistant strain MOLM13 BR1 (enter value)
Result: 3.05

Q: MOLM13 drug resistant strain MOLM13 BR1 / GI50 / `CN1CCN(c2ccc(Nc3nccc(-c4ccc5c(c4)C(C)(C)CNC5=O)n3)cc2)CC1` : value?
Result: 4.39

Q: Find the measured GI50: item `CC1(C)CNC(=O)c2ccc(-c3ccnc(Nc4cccc(N5CCCNCC5)c4)n3)cc21` , target or system MOLM13 drug resistant strain MOLM13 BR1.
Result: 1.69

Q: Quick check: GI50 on MOLM13 drug resistant strain MOLM13 BR1, item `CN1CCN(c2cc(F)cc(Nc3ncc(F)c(-c4ccc5c(c4)C(C)(C)CNC5=O)n3)c2)CC1` ?
Result: 0.345

====

# Tested on: MOLM13 drug resistant strain MOLM13 BR1
# Experiment description: Growth of drug resistant strain MOLM13 BR1, Cell Titer-Glo GI50
# Format: cell-based
# Run parameters: Homo sapiens, MOLM-13, BAY1251152-resistant MOLM13 strain, 72 hours
Give measured GI50 for each item. Keep answers brief.
Numbers only here, please. The scale is nM.

Q: Return GI50 measured with MOLM13 drug resistant strain MOLM13 BR1 given this compound: `CC(C)N1CCN(c2cc(Nc3ncc(F)c(-c4ccc5c(c4)C(C)(C)CNC5=O)n3)ccc2F)CC1`
Result: 12.3

Q: Query for MOLM13 drug resistant strain MOLM13 BR1: what GI50 does the record show for `Cc1ccc(Nc2nccc(-c3ccc4c(c3)C(C)(C)CNC4=O)n2)cc1N1CCN(C)CC1` ?
Result: 1.71

Q: Field: GI50 (MOLM13 drug resistant strain MOLM13 BR1). Entry: COc1cc(F)ccc1-c1cc(Nc2cc(CS(C)(=N)=O)ccn2)ncc1F (stereo not shown) [BAY1251152, reference compound]
Result: 1190

Q: Provide the documented GI50 with MOLM13 drug resistant strain MOLM13 BR1 as the system for COCCNC1CCC(Nc2nccc(-c3ccc4c(c3)C(C(C)C)(C(C)C)CNC4=O)n2)CC1 (stereo not shown)
Result: 8.26

All values here come from patent US20230416221A1.
